Sourced from paper PMC10397247

Readings of interaction score for the listed binders
# Target system: T1, 4H2585-bA
# T1 chain: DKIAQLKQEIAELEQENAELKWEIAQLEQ
# Experiment description: two-hybrid library CCNG1;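 further: natural log of median RNA to DNA barcode read ratio; higher means stronger binding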
Returns: the value as a bare number; no unit string appended.

Short answer for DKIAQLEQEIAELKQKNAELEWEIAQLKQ [4H2162-bA] : interaction score was -0.85

Looking up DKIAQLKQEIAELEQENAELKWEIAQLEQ [4H2585-bA] , I see its interaction score listed as 0.266

So for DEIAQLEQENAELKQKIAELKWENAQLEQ [4H235-bA] , the logged interaction score turned out to be -0.367

Measured interaction score of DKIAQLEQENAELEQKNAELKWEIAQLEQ [4H2233-bA] : -1.22
